- assay text: AUC (0 to infinity) in Sprague-Dawley rat at 5 mg/kg, iv administered as single dose by LC-MS/MS analysis
- Assay type: ADME, organism-based
- Set-up: dose 5 mg/kg, time infinity, route intravenous
- condition details: in vivo

compound smiles	AUC(0-inf) / ng·h/mL
Cl.Oc1ccc2[nH]c(-c3ccc4c(Cl)cc(Cl)c(O)c4n3)cc2c1	2120

* * *

- assay text: Permeability of compound at 100 ug/ml after 10 hrs by PAMPA assay
- Type: ADME
- condition details: read-out: permeability
readout label: Papp at 10 h, 100 ug/ml (×10⁻⁶ cm/s)

compound smiles	measured
Oc1c(Cl)cc(Cl)c2ccc(-c3cc4ccccc4[nH]3)nc12	6.6
Oc1c(Cl)cc(Cl)c2ccc(-c3cc4cc(F)ccc4[nH]3)nc12	5.3
Oc1c(Cl)cc(Cl)c2ccc(-c3cc4cc(Cl)ccc4[nH]3)nc12	5.6
Oc1ccc(-c2cc3ccccc3[nH]2)c2cccnc12	12.8
Oc1c(Cl)cc(Cl)c2ccc(-c3cc4cc5c(cc4[nH]3)OCO5)nc12	4.9
COc1cc2cc(-c3ccc4cccc(O)c4n3)[nH]c2cc1OC	5.2
Oc1cccc2ccc(-c3cc4ccc5c(c4[nH]3)OCO5)nc12	5.9

* * *

- assay text: Half life in Sprague-Dawley rat liver microsomes at 100 uM up to 180 mins by HPLC-UV analysis
- condition details: microsomes
// half-life at 3 h, 100 µM lookup, one value per entry

molecule	unit symbol	half-life at 3 h, 100 µM
COc1cc2c(cc1OC)C(=O)C(CC1CCN(Cc3ccccc3)CC1)C2 (configuration not stated)	min	77.9
Cl.Oc1cccc2ccc(-c3cc4ccc5c(c4[nH]3)OCO5)nc12	min	58.6

* * *

- assay text: MRT (0 to t) in Sprague-Dawley rat at 30 mg/kg, po by LC-MS/MS analysis
- Assay type: ADME, organism-based
- condition details: in vivo
readout label: MRT last (h)

compound smiles	measured
Cl.Oc1ccc2[nH]c(-c3ccc4c(Cl)cc(Cl)c(O)c4n3)cc2c1	2.53

* * *

- Test system: PC-12
- assay text: Induction of rat PC12 cell proliferation at 0.5 to 50 uM after 72 hrs by microscopic analysis
- Type: functional, cell-based
Activity calls are given as the source filed them. The rule behind the calls is not given here.
Outcome codes: label 1 for active, label 0 for inactive

compound smiles	class label
Oc1c(Cl)cc(Cl)c2ccc(-c3cc4cc5c(cc4[nH]3)OCO5)nc12	label 1
COc1cc2[nH]c(-c3ccc4c(Cl)cc(Cl)c(O)c4n3)cc2cc1O	label 0
Oc1c(Cl)cc(Cl)c2ccc(-c3cc4cc(F)ccc4[nH]3)nc12	label 0
Oc1ccc2[nH]c(-c3ccc4c(Cl)cc(Cl)c(O)c4n3)cc2c1	label 1
Oc1cccc2ccc(-c3cc4ccc5c(c4[nH]3)OCO5)nc12	label 1
Oc1c(Cl)cc(Cl)c2ccc(-c3cc4cc(Cl)ccc4[nH]3)nc12	label 1
Oc1c(Cl)cc(Cl)c2ccc(-c3cc4ccccc4[nH]3)nc12	label 0

* * *

- assay text: Metabolic stability in Sprague-Dawley rat liver microsomes assessed as metabolic rate constant at 100 uM up to 180 mins by HPLC-UV analysis
- condition details: 3 h

compound	K [min⁻¹]
C[C@]12CC[C@H]3[C@@H](CCC4=CC(=O)CC[C@@]43C)[C@@H]1CC[C@@H]2O	0.3132
Cl.Oc1ccc2[nH]c(-c3ccc4c(Cl)cc(Cl)c(O)c4n3)cc2c1	0.00593
Cl.Oc1c(Cl)cc(Cl)c2ccc(-c3cc4cc(Cl)ccc4[nH]3)nc12	0.00354
COc1cc2c(cc1OC)C(=O)C(CC1CCN(Cc3ccccc3)CC1)C2 (stereo unspecified)	0.00889
Cl.Oc1c(Cl)cc(Cl)c2ccc(-c3cc4cc5c(cc4[nH]3)OCO5)nc12	0.00178
Cl.Oc1cccc2ccc(-c3cc4ccc5c(c4[nH]3)OCO5)nc12	0.01183
